Test system: HCV pseudotype (HIV core proteins, HCV E1 and E2 of strain H77)
Conditions: 25 μM
Ends that are not written are not given here.
Mark False for Percent inhibition values under 10%, and True for everything at or above.

Some solved entries appear below for comparison.
sequence="CDLEDRDRSELSPLLLST [compound 38, CDLEDRDRSELSPLLLST]" classname=True
sequence="MASCRPIDWFAQGWGPIT [compound 88, MASCRPIDWFAQGWGPIT]" classname=False
sequence="HYPCTINYTIFKVRMYVG [compound 33, HYPCTINYTIFKVRMYVG]" classname=True
sequence="TDRSGVPTYSWGENETDV [compound 96, TDRSGVPTYSWGENETDV]" classname=False
sequence="ARVCACLWMMLLIAQAEA [compound 121]" classname=True

Assess whether reported Percent inhibition for FYQHKFNSSGCPERLASC [compound 9] sits at 10% or higher.
False

Entry to check: TYSWGANDTDVFVLNNTR [compound 20, TYSWGANDTDVFVLNNTR]
True

Entry to check: PNSSDQRPYCWHYAPRPC [compound 90]
False

Entry to check: TKTCGGPPCNIGGVGNRT [compound 101]
False

Entry to check: GRTTAGLVGLLTPGAKQN [peptide 3, GRTTAGLVGLLTPGAKQN]
False

Entry to check: ITPRCMVDYPYRLWHYPC [compound 31]
False

Entry to check: MYVGGVEHRLEAACNWTR [compound 35, MYVGGVEHRLEAACNWTR]
True

Entry to check: QILPCAFTTLPALSTGLI [compound 116, QILPCAFTTLPALSTGLI]
True

Entry to check: QNIVDVQYLYGVGSSIAS [compound 44, QNIVDVQYLYGVGSSIAS]
True

Entry to check: FYAHKFNSSGCPERMASC [compound 86]
True

Entry to check: DYPYRLWHYPCTLNFSIF [compound 108, DYPYRLWHYPCTLNFSIF]
True

Entry to check: NWTRGERCDLEDRDRSEL [compound 37, NWTRGERCDLEDRDRSEL]
False

Entry to check: HRLNAACNWTRGERCNLE [compound 111]
False

====

System: HCV pseudotype (HIV core proteins, HCV E1 and E2 of strain H77)
Details: 25 μM
Ends that are not written are not given here.
Mark False for Percent inhibition values under 30%, and True for everything at or above.

Some solved entries appear below for comparison.
sequence="PASQVCGPVYCFTPSPVV [compound 93]" classname=False
sequence="TTLPALSTGLIHLHQNIV [compound 117, TTLPALSTGLIHLHQNIV]" classname=False
sequence="HRLEAACNWTRGERCDLE [compound 36]" classname=False
sequence="LLSTTQWQVLPCSFTTLP [compound 40, LLSTTQWQVLPCSFTTLP]" classname=False
sequence="PYCWHYAPRPCGVVPASQ [compound 91]" classname=True

Assess whether reported Percent inhibition for ARVCSCLWMMLLISQAEA [compound 49] sits at 30% or higher.
True

Entry to check: NCNESLNTGWLAGLFYQH [compound 8, NCNESLNTGWLAGLFYQH]
True

Entry to check: AFVSFAIKWEYILLLFLL [compound 119, AFVSFAIKWEYILLLFLL]
True

Entry to check: DYPYRLWHYPCTINYTIF [compound 32, DYPYRLWHYPCTINYTIF]
True

Entry to check: PTDCFRKHPEATYSRCGS [compound 28]
False

Entry to check: INTNGSWHINSTALNCNE [peptide 6, INTNGSWHINSTALNCNE]
False

Entry to check: SSGCPERMASCRPIDWFA [compound 87]
False

Entry to check: TGFFAALFYAHKFNSSGC [compound 51, TGFFAALFYAHKFNSSGC]
True

Entry to check: NNTRPPLGNWFGCTWMNS [compound 22, NNTRPPLGNWFGCTWMNS]
True

Entry to check: PTDCFRKHPEATYTKCGS [compound 104]
False

Entry to check: GNNTLLCPTDCFRKHPEA [compound 27]
False

Entry to check: HINSTALNCNESLNTGWL [compound 7, HINSTALNCNESLNTGWL]
False
